molecular target: Human immunodeficiency virus type 1 protease (Human immunodeficiency virus 1, UniProt Q72874); assay: In vitro concentration required to inhibit 50% activity of HIV protease was measured; format: functional
pIC50: −log10 of the molar value.
Record y whenever pIC50 is at 8 or higher; record n when lower.

CC[C@H](C)[C@H](NC(=O)[C@@H]1CCCN1C[C@@H](O)[C@H](Cc1ccccc1)NC(=O)[C@H](CC(N)=O)NC(=O)OC(C)(C)C)C(=O)N[C@H](C(=O)OC)C(C)C = n

Q: Test whether the molecule `CC(C)(C)OC(=O)[C@@H]1CCCN1C[C@@H](O)[C@H](Cc1ccccc1)NC(=O)[C@H](CC(N)=O)NC(=O)OCc1ccccc1` records pIC50 of 8 or higher.
Ans: n

Q: Test whether the molecule `CC[C@H](C)[C@H](NC(=O)[C@@H]1CCCN1C[C@H](O)[C@H](Cc1ccccc1)NC(=O)[C@H](CC(N)=O)NC(=O)OCc1ccccc1)C(=O)N[C@@H](Cc1ccccc1)C(=O)OC` records pIC50 of 8 or higher.
Ans: y

Q: Test whether the molecule `CC(C)(C)OC(=O)[C@@H]1CCCN1C[C@H](O)[C@H](Cc1ccccc1)NC(=O)[C@H](CC(N)=O)NC(=O)OCc1ccccc1` records pIC50 of 8 or higher.
Ans: n

Q: Test whether the molecule `CC[C@H](C)[C@H](NC(=O)[C@@H]1CCCN1C[C@H](O)[C@H](Cc1ccccc1)NC(=O)[C@H](CC(N)=O)NC(=O)c1ccc2ccccc2n1)C(=O)N[C@@H](Cc1ccccc1)C(=O)OC` records pIC50 of 8 or higher.
Ans: y

Q: Test whether the molecule CC[C@H](C)[C@H](NC(=O)[C@@H]1CCCN1C[C@H](O)[C@H](Cc1ccccc1)NC(=O)[C@H](CC(N)=O)NC(=O)[C@H](CC(C)C)NC(=O)[C@H](CO)NC(C)=O)C(=O)N[C@H](C(=O)OC)C(C)C (stereo in doubt; 1S) records pIC50 of 8 or higher.
Ans: y

Q: Test whether the molecule CC[C@H](C)[C@H](NC(=O)[C@@H]1CCCN1C[C@H](O)[C@H](Cc1ccccc1)NC(=O)[C@H](CC(N)=O)NC(=O)[C@H](CC(C)C)NC(=O)[C@H](CO)NC(C)=O)C(=O)N[C@H](C(=O)OC)C(C)C (stereo in doubt; 1R) records pIC50 of 8 or higher.
Ans: n
